# credit: patent US20160083400A1

IC50 overview
Target: PDE1B (Homo sapiens)
Experiment: In vitro HTRF PDE1 inhibition assay (PDE1B)
Assay type: biochemical
Settings: 100 nM cyclic GMP, calmodulin, 45 minutes at 37° C.
Assay endpoint: IC50

[[record]]
molecule = "O=c1c2cnc(C3CCOCC3)n2nc2n1CC[C@H](c1ccc(Cl)cc1C(F)(F)F)N2"
assay_endpoint = "IC50"
reported_result = "< 1 µM"

[[record]]
molecule = "CC(C)c1ncnc2c(=O)n3c(nc12)NC(c1ccc(Cl)cc1)CC3 (stereo not drawn)"
assay_endpoint = "IC50"
reported_result = "< 1 µM"

[[record]]
molecule = "CCCc1ncc2c(=O)n3c(nn12)N[C@@H](c1ccc(Cl)cc1)CC3"
assay_endpoint = "IC50"
reported_result = "< 1 µM"

[[record]]
molecule = "COc1cncc([C@@H]2CCn3c(nn4c(C5CCCC5)ncc4c3=O)N2)c1"
assay_endpoint = "IC50"
reported_result = "< 1 µM"

[[record]]
molecule = "O=c1c2cnn(C3CCC(F)(F)CC3)c2nc2n1CCC(c1ccc(Cl)cc1)N2 (stereo not drawn)"
assay_endpoint = "IC50"
reported_result = "1 to 10 µM"

[[record]]
molecule = "COc1ccc(CC2CCn3c(nn4c(C5CCOCC5)ncc4c3=O)N2)cc1 (stereo not drawn)"
assay_endpoint = "IC50"
reported_result = "< 1 µM"

[[record]]
molecule = "Cc1cnc(CC2CCn3c(nc4c(cnn4C4CCCC4)c3=O)N2)nc1 (stereo not drawn)"
assay_endpoint = "IC50"
reported_result = "1 to 10 µM"

[[record]]
molecule = "CC(C)n1ncc2c(=O)n3c(nc21)NC(c1ccc(C(F)(F)F)cc1)CC3 (stereo not drawn)"
assay_endpoint = "IC50"
reported_result = "< 1 µM"

[[record]]
molecule = "COc1ccc([C@@H]2Cn3c(nn4c(C5CCOCC5)ncc4c3=O)N2)cc1"
assay_endpoint = "IC50"
reported_result = "< 1 µM"

[[record]]
molecule = "COc1cccc([C@H]2CCn3c(nn4c(C5CCOCC5)ncc4c3=O)N2)c1"
assay_endpoint = "IC50"
reported_result = "< 1 µM"

[[record]]
molecule = "CC(C)n1ncc2c(=O)n3c(nc21)NC(c1cccc(Cl)c1)CC3 (stereo not drawn)"
assay_endpoint = "IC50"
reported_result = "< 1 µM"

[[record]]
molecule = "COc1cc(C2CCn3c(nn4c(C(C)C)ncc4c3=O)N2)ccc1F (stereo not drawn)"
assay_endpoint = "IC50"
reported_result = "< 1 µM"

[[record]]
molecule = "C=Cc1ncc2c(=O)n3c(nn12)N[C@@H](c1ccc(Cl)cc1)CC3"
assay_endpoint = "IC50"
reported_result = "1 to 10 µM"

[[record]]
molecule = "O=c1c2cnc(C3CCOCC3)n2nc2n1CCC1(CCc3ccccc31)N2 (stereo not drawn)"
assay_endpoint = "IC50"
reported_result = "1 to 10 µM"

[[record]]
molecule = "CC[C@H](C)c1ncc2c(=O)n3c(nn12)N[C@@H](c1ccc(Cl)cc1)CC3"
assay_endpoint = "IC50"
reported_result = "< 1 µM"

[[record]]
molecule = "O=c1c2cnc(C3CCCC3)n2nc2n1CC[C@H](c1cncc(Cl)c1)N2"
assay_endpoint = "IC50"
reported_result = "< 1 µM"

[[record]]
molecule = "COc1cccc(C2CCn3c(nc4c(cnn4C4CCCC4)c3=O)N2)c1 (stereo not drawn)"
assay_endpoint = "IC50"
reported_result = "10 to 100 µM"

[[record]]
molecule = "O=c1c2cnn(C3CCOCC3)c2nc2n1C[C@H](c1ccc(Cl)cc1)N2"
assay_endpoint = "IC50"
reported_result = "< 1 µM"


----------
Target: PDE1B (Homo sapiens, UniProt Q01064)
Sequence (Q01064 whole entry): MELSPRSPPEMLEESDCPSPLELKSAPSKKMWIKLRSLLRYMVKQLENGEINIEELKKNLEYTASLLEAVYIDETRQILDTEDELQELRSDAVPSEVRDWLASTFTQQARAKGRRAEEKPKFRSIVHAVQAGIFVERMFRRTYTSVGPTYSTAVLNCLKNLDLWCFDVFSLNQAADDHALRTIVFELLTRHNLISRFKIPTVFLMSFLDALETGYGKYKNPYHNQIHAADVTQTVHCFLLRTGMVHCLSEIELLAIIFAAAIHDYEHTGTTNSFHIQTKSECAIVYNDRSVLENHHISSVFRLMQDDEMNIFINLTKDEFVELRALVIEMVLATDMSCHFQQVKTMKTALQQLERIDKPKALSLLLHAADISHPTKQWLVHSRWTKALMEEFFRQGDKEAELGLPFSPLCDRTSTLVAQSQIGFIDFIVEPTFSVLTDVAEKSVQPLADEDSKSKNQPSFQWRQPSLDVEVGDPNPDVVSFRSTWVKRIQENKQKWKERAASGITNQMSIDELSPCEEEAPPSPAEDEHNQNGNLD
Experiment: In vitro HTRF PDE1 inhibition assay (PDE1B)
Assay type: biochemical
Conditions: 100 nM cyclic GMP, calmodulin, 45 minutes at 37° C.
IC50 overview
Assay endpoint: IC50

[[record]]
compound = "O=c1c2cnc(C3CCOCC3)n2nc2n1CCC(Cc1ccc(Cl)cc1)N2 (stereo not drawn)"
tgt = "PDE1B (Homo sapiens, UniProt Q01064)"
reported_result = "< 1 µM"

[[record]]
compound = "O=C1c2cnc([C@@H]3CCOC3)n2NC2=N[C@@H](c3ccc(Cl)cc3)CN12"
tgt = "PDE1B (Homo sapiens, UniProt Q01064)"
reported_result = "< 1 µM"

[[record]]
compound = "CC(C)c1ncc2c(=O)n3c(nn12)NCCC3"
tgt = "PDE1B (Homo sapiens, UniProt Q01064)"
reported_result = "< 1 µM"

[[record]]
compound = "COc1ccc(CC2CCn3c(nc4c(cnn4C(C)C)c3=O)N2)cc1 (stereo not drawn)"
tgt = "PDE1B (Homo sapiens, UniProt Q01064)"
reported_result = "< 1 µM"

[[record]]
compound = "CC(C)c1ncc2c(=O)n3c(nn12)NC(c1ccc(C(F)(F)F)cc1)CC3 (stereo not drawn)"
tgt = "PDE1B (Homo sapiens, UniProt Q01064)"
reported_result = "< 1 µM"

[[record]]
compound = "COc1cccc([C@@H]2CCn3c(nn4c(C5CCOCC5)ncc4c3=O)N2)c1"
tgt = "PDE1B (Homo sapiens, UniProt Q01064)"
reported_result = "< 1 µM"

[[record]]
compound = "COc1ccc([C@H]2CN3C(=O)c4cnc(C5(C(F)(F)F)CC5)n4NC3=N2)cc1"
tgt = "PDE1B (Homo sapiens, UniProt Q01064)"
reported_result = "< 1 µM"

[[record]]
compound = "CC(C)c1ncc2c(=O)n3c(nn12)NC(c1ccc(C#N)cn1)CC3 (stereo not drawn)"
tgt = "PDE1B (Homo sapiens, UniProt Q01064)"
reported_result = "< 1 µM"

[[record]]
compound = "O=c1c2cnc(C3COC3)n2nc2n1CC[C@H](c1ccc(Cl)cc1)N2"
tgt = "PDE1B (Homo sapiens, UniProt Q01064)"
reported_result = "< 1 µM"


----------
These records show IC50 for PDE1C (Homo sapiens, UniProt Q14123).
Assay endpoint: IC50

[[record]]
compound = "O=c1c2ncnc(C3CCOCC3)c2nc2n1CCC(c1ccc(Cl)cc1)N2 (centres unmarked) [Example 265]"
reported_result = "1 to 10 µM"

[[record]]
compound = "O=c1c2cnc(C3(C(F)(F)F)CC3)n2nc2n1CC[C@H](c1ccc(Cl)cc1)N2 [Example 238]"
reported_result = "1 to 10 µM"

[[record]]
compound = "O=c1c2cnc([C@@H]3CCOC3)n2nc2n1CC[C@H](c1ccc(Cl)cc1)N2 [Example 224]"
reported_result = "1 to 10 µM"

[[record]]
compound = "Cc1ccc([C@H]2CN3C(=O)c4cnc(C(C)C)n4NC3=N2)cc1 [Example 96]"
reported_result = "< 1 µM"

[[record]]
compound = "O=c1c2cnn(C3CCCC3)c2nc2n1CCC(c1ccc(Cl)cc1)N2 (centres unmarked) [Example 4]"
reported_result = "1 to 10 µM"

[[record]]
compound = "COC1(c2ncc3c(=O)n4c(nn23)N[C@@H](c2ccc(Cl)cc2)CC4)CC1 [Example 239]"
reported_result = "1 to 10 µM"

[[record]]
compound = "O=c1c2cnc(C3CCOCC3)n2nc2n1CCC(c1ccc(Cl)cc1)N2 (centres unmarked) [Example 55]"
reported_result = "1 to 10 µM"

[[record]]
compound = "O=c1c2cnc(C3CCC3)n2nc2n1CC[C@H](c1ccc(Cl)cc1)N2 [Example 65]"
reported_result = "< 1 µM"

[[record]]
compound = "CC(C)n1ncc2c(=O)n3c(nc21)NC(c1ccc(C(F)(F)F)cc1)CC3 (centres unmarked) [Example 29]"
reported_result = "1 to 10 µM"

[[record]]
compound = "CC(C)c1ncc2c(=O)n3c(nn12)N[C@@H](c1ccc(Cl)cc1)CC3 [Example 18]"
reported_result = "1 to 10 µM"

[[record]]
compound = "CC(C)c1ncc2c(=O)n3c(nn12)NCCC3 [Example 52]"
reported_result = "1 to 10 µM"

[[record]]
compound = "O=c1c2cnc(C3CCOCC3)n2nc2n1CC[C@H](c1ccc(Cl)cc1)N2 [Example 69]"
reported_result = "< 1 µM"

[[record]]
compound = "CC[C@H](C)c1ncc2c(=O)n3c(nn12)N[C@@H](c1ccc(Cl)cc1)CC3 [Example 227]"
reported_result = "< 1 µM"

[[record]]
compound = "O=c1c2cnc([C@H]3CCOC3)n2nc2n1CC[C@H](c1ccc(Cl)cc1)N2 [Example 225]"
reported_result = "< 1 µM"


----------
Molecular target: UniProt Q01064
Assay: In vitro HTRF PDE1 inhibition assay (PDE1B)
Assay type: biochemical
Conditions: 100 nM cyclic GMP, calmodulin, 45 minutes at 37° C.
IC50 overview
Assay endpoint: IC50

[[record]]
molecule = "COCc1ncc2c(=O)n3c(nn12)N[C@@H](c1ccc(Cl)cc1)CC3"
reported_result = "< 1 µM"

[[record]]
molecule = "O=c1c2cnc(C3CCNCC3)n2nc2n1CCC(c1ccc(Cl)cc1)N2 (centres unmarked)"
reported_result = "1 to 10 µM"

[[record]]
molecule = "O=c1c2cnn(C3CCC3)c2nc2n1CCC(c1ccc(Cl)cc1)N2 (centres unmarked)"
reported_result = "< 1 µM"

[[record]]
molecule = "O=c1c2cnc(C3(C(F)(F)F)CC3)n2nc2n1CC[C@H](c1ccc(Cl)cc1)N2"
reported_result = "< 1 µM"

[[record]]
molecule = "N#Cc1ccc(C2CCn3c(nc4c(C5CCOCC5)onc4c3=O)N2)cc1 (centres unmarked)"
reported_result = "10 to 100 µM"

